# Test system: c-Abl (mouse)
# Assay method text: phosphorylation enrichment, bacterial display (enrichment ratio); higher = better substrate or ligand; peptides without Tyr show the background;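 note: 11-residue human phosphosite peptides and single-mutation variants displayed on the E. coli surface, counted by deep sequencing, each peptide's frequency after selection divided by its frequency in the unselected input library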;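 note: frequency after pTyr selection over input frequency; kinase dosed for 20-30% of maximal phosphorylation in three min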
Documented phosphorylation enrichment across a set of sequences
# respond with the number and nothing more

Worked cases, answers included:
Enquiry: Fill blank: measured phosphorylation enrichment of the sequence RLPNGYGLAYR [DLK1_Y262_S260N] is ____.
Return: 0.413

Enquiry: Fill blank: measured phosphorylation enrichment of the sequence DASAVYLRDFQ [PLCG2_Y242_H244R] is ____.
Return: 0.986

Enquiry: Fill blank: measured phosphorylation enrichment of the sequence GDAMLYFPSVS [GPR143_Y177_A173D_YF] is ____.
Return: 0.674

Enquiry: Fill blank: measured phosphorylation enrichment of the sequence KPGLKYVTFGN [GALNTL5_Y404_YF] is ____.
Return: 0.551

Enquiry: Fill blank: measured phosphorylation enrichment of the sequence ENEGTYVCIAA [ADAMTSL3_Y1365_T1370A] is ____.
Return: 1.08

Enquiry: Fill blank: measured phosphorylation enrichment of the sequence KKEGPYDVVVL [PARK7_Y67] is ____.
Return: 0.631

More entries:
Enquiry: Fill blank: measured phosphorylation enrichment of the sequence DLLNSYTENEG [HSPA4L_Y600_I601T] is ____.
Return: 0.623

* * *

Documented phosphorylation enrichment across a set of sequences
# Test system: Fer (mouse)
# Assay method text: phosphorylation enrichment, bacterial display (enrichment ratio); higher = better substrate or ligand; peptides without Tyr show the background

Worked cases, answers included:
Enquiry: Fill blank: measured phosphorylation enrichment of the sequence KKHIPHREHKS [CSNK1G2_Y206_Y206H] is ____.
Return: 2.81

Enquiry: Fill blank: measured phosphorylation enrichment of the sequence LARDIYKNDFF [ROS1_Y2110_YF] is ____.
Return: 1.14

More entries:
Enquiry: Fill blank: measured phosphorylation enrichment of the sequence SVVVTYEPPEV [TP53_Y220_P219T] is ____.
Return: 0.752

Enquiry: Fill blank: measured phosphorylation enrichment of the sequence ATATEYHTTSH [SLC4A1_Y46_D45E] is ____.
Return: 0.301

* * *

# Tested on: AncSZ
# Assay method text: phosphorylation enrichment, bacterial display (enrichment ratio); higher = better substrate or ligand; peptides without Tyr show the background
So basically every entry gets a class from its phosphorylation enrichment, ranges being low value (below 0.7), medium value (0.7 to below 1), high value (1 or more)

Example entries and their recorded answers appear below.
Enquiry: // bin(item) where item = QGLRLYRSHLA [BTK_Y617_P619S]
Return: medium value

Enquiry: // bin(item) where item = PSAELYSFALP [PDGFRB_Y716_N718Y_YF]
Return: high value

Enquiry: // bin(item) where item = KTGNIYRTEYG [MRPL3_Y265_M261T]
Return: low value

Enquiry: // bin(item) where item = HRLSTYTKMLF [CHST8_Y251]
Return: high value

Enquiry: // bin(item) where item = RQRTAYFSLNT [CDH1_Y68_D72N]
Return: medium value

Enquiry: // bin(item) where item = DIMDLYNQPEP [IL36A_Y96]
Return: high value

More entries:
Enquiry: // bin(item) where item = PQEVMYAQLDH [KIR3DL2_Y398_T397M]
Return: high value

Enquiry: // bin(item) where item = QGRQTYLLQPA [DDR2_Y813_P815L]
Return: low value

Enquiry: // bin(item) where item = YEEDSYSHIMA [FDPS_Y388]
Return: high value

Enquiry: // bin(item) where item = LHQSTYQRFDV [SLC7A14_Y693_YF]
Return: high value

Enquiry: // bin(item) where item = KVALVYGQMNE [ATP5F1B_Y269]
Return: medium value
